assay: Selectivity ratio of cytotoxic activity against mouse NIH/3T3 cells to antitrypanosomal activity against amastigote stage of Trypanosoma cruzi; settings: NIH/3T3 cells
Kindly state selectivity ratio for each of the entries shown.
A bare number is all that is needed in reply.

Record request: selectivity ratio value, item N#C/C(=C1/SCC(c2ccccc2Cl)S1)n1ccnc1 (stereo not given) 306

One more compound: "C[C@@H](c1ncncc1F)[C@](O)(Cn1cncn1)c1ccc(F)cc1F" 212

---

assay: Selectivity ratio of cytotoxic activity against mouse NIH/3T3 cells to antitrypanosomal activity against amastigote stage of Trypanosoma cruzi; details: nih/3t3
measurement_type: selectivity ratio

Record request: selectivity ratio value, item Clc1ccc(COC(Cn2ccnc2)c2ccc(Cl)cc2Cl)c(Cl)c1 (configuration not stated) [MICONAZOLE NITRATE] > 19.5

One more compound: Clc1ccc(CO/N=C(\Cn2ccnc2)c2ccc(Cl)cc2Cl)c(Cl)c1 [OXICONAZOLE NITRATE] > 46.3

---

Kindly state selectivity ratio for each of the entries shown.
experiment: Selectivity ratio of cytotoxic activity against mouse NIH/3T3 cells to antitrypanosomal activity against amastigote stage of Trypanosoma cruzi; conditions: NIH/3T3 cells

Record request: selectivity ratio value, item "Clc1ccccc1C(c1ccccc1)(c1ccccc1)n1ccnc1" > 87.2

One more compound: CC(=O)N1CCN(c2ccc(OCC3COC(Cn4ccnc4)(c4ccc(Cl)cc4Cl)O3)cc2)CC1 (stereo not drawn) > 853

One more compound: c1ccc(-c2ccc(C(c3ccccc3)n3ccnc3)cc2)cc1 (stereo not drawn) > 91.6
